# system.under.test: Protein kinase C beta type (Homo sapiens, UniProt P05771)
# Sequence (P05771 whole entry): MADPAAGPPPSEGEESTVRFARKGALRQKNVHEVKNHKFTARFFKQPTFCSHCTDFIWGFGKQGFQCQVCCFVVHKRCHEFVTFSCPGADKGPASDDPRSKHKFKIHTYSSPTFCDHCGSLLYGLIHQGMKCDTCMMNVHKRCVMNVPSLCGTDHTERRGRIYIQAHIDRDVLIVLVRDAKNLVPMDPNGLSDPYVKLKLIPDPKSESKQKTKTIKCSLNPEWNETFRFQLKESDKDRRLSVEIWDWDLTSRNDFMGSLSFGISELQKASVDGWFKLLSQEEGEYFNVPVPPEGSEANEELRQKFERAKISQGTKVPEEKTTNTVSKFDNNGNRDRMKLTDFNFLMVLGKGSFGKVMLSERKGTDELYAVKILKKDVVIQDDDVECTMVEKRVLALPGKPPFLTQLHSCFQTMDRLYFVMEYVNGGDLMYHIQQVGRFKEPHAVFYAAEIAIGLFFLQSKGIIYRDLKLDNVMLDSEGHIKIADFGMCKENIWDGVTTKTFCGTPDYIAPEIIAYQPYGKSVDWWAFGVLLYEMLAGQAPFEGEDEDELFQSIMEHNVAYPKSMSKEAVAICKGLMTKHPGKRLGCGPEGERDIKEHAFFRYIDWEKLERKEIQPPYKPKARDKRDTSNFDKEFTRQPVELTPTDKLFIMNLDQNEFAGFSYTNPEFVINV
# measurement.description: Inhibition of PKCbeta2 (unknown origin)
# settings: read-out: pIC50 (converted)
IC50 listing for selected compounds.
Output spec: scalar in nM, unitless text.

Answered examples (2):
smiles.structure	reported.measurement
CN1CCN(CCCn2cc(C3=C(Nc4ccccc4)C(=O)NC3=O)c3ccccc32)CC1	23.4
COc1cccc(NC2=C(c3c[nH]c4ccccc34)C(=O)NC2=O)c1	759

Prompt line: Give recorded IC50. O=C1NC(=O)C(c2c[nH]c3ccccc23)=C1Nc1cccc(C(F)(F)F)c1
Response line: 1480

Prompt line: Give recorded IC50. CN(C)CCCCCn1cc(C2=C(Nc3ccccc3)C(=O)NC2=O)c2ccccc21
Response line: 41.7

Prompt line: Give recorded IC50. Cc1ccc(NC2=C(c3c[nH]c4ccccc34)C(=O)NC2=O)cc1
Response line: 490
